System: diamondback moth (Plutella xylostella)
Test: Diamondback moth mortality test on sprayed cabbage (Test Example 15)
Format: in vivo
Details: 120 h, 20 mL/cup sprayed on cabbage, second-instar larvae, 25° C., after 5 days
The following compounds are shown together with reported mortality at 500 ppm values.

See these solved cases before continuing.
CC(=NOCc1c(-n2nnn(C)c2=O)cccc1C(F)(F)F)c1cccc(OC(F)(F)F)c1 ... ≥ 80%
CC(=NOCc1c(C)cccc1-n1nnn(C)c1=O)c1ccccc1 ... ≥ 80%

Entry under review: `CC(=NOCc1c(C)cccc1-n1nnn(C)c1=O)c1cccc(C)c1` . Reported mortality at 500 ppm?
≥ 80%

// query mortality at 500 ppm value for entry `Cn1nnn(-c2cccc(Cl)c2CON=C(c2ccccc2)C(F)(F)F)c1=O`
≥ 80%
